All values here come from ChEMBL document CHEMBL1127777.

Measurement Target: Protein kinase C (PKC)
Assay Summary: In vitro inhibition of protein kinase C from rat brain.
Reported Property: IC50 (nM)

Completed entries (count: 10):
NC1=NC(=O)c2c1c1c3ccccc3n3c1c1c2c2ccccc2n1COC3: 24
O=C1NC(=O)c2c1c1c3ccccc3n3c1c1c2c2ccccc2n1CN(O)C3: 90
O=C1NC(=O)c2c1c1c3ccccc3n3c1c1c2c2ccccc2n1C1COCC3S1(=O)=O: 20
O=C1NC(=O)c2c1c1c3ccccc3n3c1c1c2c2ccccc2n1COC3: 11
CC1n2c3ccccc3c3c4c(c5c6ccccc6n(c5c32)C(C)S1(=O)=O)C(=O)NC4=O (stereo in doubt): 2.4
O=C1NC(=O)c2c1c1c3ccccc3n3c1c1c2c2ccccc2n1CS(=O)(=O)C3: 2
CC1n2c3ccccc3c3c4c(c5c6ccccc6n(c5c32)C(C)S1(=O)=O)C(=O)NC4=O (stereo in doubt; 16 (dl)): 120
O=C1NC(=O)c2c1c1c3ccccc3n3c1c1c2c2ccccc2n1CN(CCO)C3: 17
CCOC(=O)C1n2c3ccccc3c3c4c(c5c6ccccc6n(c5c32)CS1(=O)=O)C(=O)NC4=O (stereo not drawn): 20
O=C1NCc2c1c1c3ccccc3n3c1c1c2c2ccccc2n1CN(CCO)C3: 15

(a) O=C1NC(=O)c2c1c1c3ccccc3n3c1c1c2c2ccccc2n1CNC3
(b) O=C1NCc2c1c1c3ccccc3n3c1c1c2c2ccccc2n1CS(=O)(=O)C3
(c) NC1=NC(=O)c2c1c1c3ccccc3n3c1c1c2c2ccccc2n1CSC3
// smallest IC50 at index 0, largest at the end Response field: labels, in requested order.
b, c, a
(b: 5 nM, c: 24 nM, a: 145 nM)

====

Measurement Target: Protein kinase C (PKC)
Assay Summary: In vitro inhibition of protein kinase C from rat brain.
Reported Property: IC50 (µM)

O=C1NC(=O)c2c1c1c3ccccc3n3c1c1c2c2ccccc2n1C[S+]([O-])C3: 0.019

(P) O=C1NCc2c1c1c3ccccc3n3c1c1c2c2ccccc2n1CSC3
(Q) CN1Cn2c3ccccc3c3c4c(c5c6ccccc6n(c5c32)C1)C(=O)NC4=O
Which value of IC50 is greater, the one for P or the one for Q ? Could you answer with the label of the item you picked?
Q
